Target: Acetylcholinesterase (Homo sapiens)
Sequence (P22303 whole entry): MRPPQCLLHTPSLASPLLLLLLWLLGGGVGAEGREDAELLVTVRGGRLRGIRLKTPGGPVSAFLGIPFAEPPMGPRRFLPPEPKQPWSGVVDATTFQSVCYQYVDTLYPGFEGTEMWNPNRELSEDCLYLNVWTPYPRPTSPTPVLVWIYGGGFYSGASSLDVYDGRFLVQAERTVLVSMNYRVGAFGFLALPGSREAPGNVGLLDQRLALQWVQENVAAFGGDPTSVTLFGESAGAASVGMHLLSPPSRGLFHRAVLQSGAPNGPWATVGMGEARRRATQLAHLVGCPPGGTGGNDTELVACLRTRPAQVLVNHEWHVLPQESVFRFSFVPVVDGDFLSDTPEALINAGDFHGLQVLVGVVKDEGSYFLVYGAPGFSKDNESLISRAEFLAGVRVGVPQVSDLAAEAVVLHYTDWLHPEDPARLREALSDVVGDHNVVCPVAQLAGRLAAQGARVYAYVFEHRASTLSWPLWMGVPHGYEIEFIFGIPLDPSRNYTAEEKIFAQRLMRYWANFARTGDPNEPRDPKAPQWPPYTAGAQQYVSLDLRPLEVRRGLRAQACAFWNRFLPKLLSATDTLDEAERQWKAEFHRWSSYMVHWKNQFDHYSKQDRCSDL
Give measured IC50 for each item. Keep answers brief.
Answers are plain numbers, in µM.

{"SMILES_REPRESENTATION": "C=CC[C@@H]1[C@H](O)[C@@H](OCc2ccccc2)[C@H](O)CN1CCCCCCCC", "VALUE_UNIT": "µM", "IC50": 22}

Each compound below has a reported value. Please supply its IC50.
1. O=C1N[C@H](COCc2ccccc2)[C@@H](OCc2ccccc2)[C@H](OCc2ccccc2)[C@H]1OCc1ccccc1
2. c1ccc(COC[C@H]2NC[C@H](OCc3ccccc3)[C@@H](OCc3ccccc3)[C@@H]2OCc2ccccc2)cc1

Response:
[46, 60]

---

Reported IC50 for target or system Acetylcholinesterase (Electrophorus electricus, UniProt O42275), by entry.

Each compound below has a reported value. Please supply its IC50.
1. c1ccc(COC[C@H]2NC[C@H](OCc3ccccc3)[C@@H](OCc3ccccc3)[C@@H]2OCc2ccccc2)cc1
2. C=CC[C@@H]1[C@H](O)[C@@H](OCc2ccccc2)[C@H](O)CN1CCCCCCCC
3. O=C1N[C@H](COCc2ccccc2)[C@@H](OCc2ccccc2)[C@H](OCc2ccccc2)[C@H]1OCc1ccccc1

Response:
1: 3 µM; 2: 63 µM; 3: 2 µM

---

Target: Acetylcholinesterase (Electrophorus electricus) (UniProt O42275)
Sequence (O42275 24-633 limits assumed): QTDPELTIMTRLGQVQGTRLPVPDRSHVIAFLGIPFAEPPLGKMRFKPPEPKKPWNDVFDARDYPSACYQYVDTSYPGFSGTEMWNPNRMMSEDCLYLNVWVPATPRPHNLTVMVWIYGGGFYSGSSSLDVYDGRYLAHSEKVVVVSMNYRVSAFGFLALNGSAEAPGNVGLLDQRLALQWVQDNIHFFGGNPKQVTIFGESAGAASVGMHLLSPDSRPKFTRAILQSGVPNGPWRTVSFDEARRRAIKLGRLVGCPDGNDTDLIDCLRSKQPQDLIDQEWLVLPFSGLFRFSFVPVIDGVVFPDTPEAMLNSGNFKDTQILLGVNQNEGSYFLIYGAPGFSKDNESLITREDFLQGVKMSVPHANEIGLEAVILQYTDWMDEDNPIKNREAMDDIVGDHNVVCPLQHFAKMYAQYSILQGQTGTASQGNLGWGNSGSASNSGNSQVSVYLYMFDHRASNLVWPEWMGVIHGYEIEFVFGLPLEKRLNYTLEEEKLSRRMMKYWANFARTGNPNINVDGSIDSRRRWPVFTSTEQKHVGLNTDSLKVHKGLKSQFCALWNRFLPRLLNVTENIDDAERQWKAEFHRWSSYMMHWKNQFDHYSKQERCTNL
Assay: Inhibition of electric eel AchE using acetylthiocholine iodide as substrate at 250 uM by Ellman method
The source made the active and inactive calls. The rule behind the calls is not given here.
MEASURED_METRIC: inhibition

# annotated cases, reported inhibition shown
{"SMILES_REPRESENTATION": "C[Si](C)(C)CCCn1cc(C[C@H]2NC[C@@H](O)[C@H](O)[C@H]2O)nn1", "inhibition": "inactive"}
{"SMILES_REPRESENTATION": "C=CC[C@H]1NC[C@@H](O)[C@H](OCc2ccccc2)[C@H]1O", "inhibition": "< 50%"}
{"SMILES_REPRESENTATION": "CCCCCCCCO[C@H]1CN(CCCCCCCC)[C@H](CO)[C@H](O)[C@@H]1O", "inhibition": "inactive"}
{"SMILES_REPRESENTATION": "CCCCN1C[C@@H](O)[C@H](O)[C@@H](O)[C@H]1CCC", "inhibition": "inactive"}
{"SMILES_REPRESENTATION": "CCCCCCCCCCn1cc(C[C@H]2NC[C@@H](O)[C@H](O)[C@H]2O)nn1", "inhibition": "inactive"}
{"SMILES_REPRESENTATION": "CCCCCCCCN1C[C@@H](O)[C@H](O)[C@@H](O)[C@H]1CCC", "inhibition": "inactive"}
{"SMILES_REPRESENTATION": "CCC[C@@H]1NC[C@@H](O)[C@H](O)[C@H]1O", "inhibition": "< 50%"}
{"SMILES_REPRESENTATION": "O[C@@H]1[C@@H](O)[C@@H](Cc2cn(Cc3ccccc3)nn2)NC[C@H]1O", "inhibition": "inactive"}
{"SMILES_REPRESENTATION": "O[C@@H]1[C@@H](OCc2ccccc2)[C@@H](Cc2cn(Cc3ccccc3)nn2)NC[C@H]1O", "inhibition": "< 50%"}

For the next question, use this compound.
Sample `O[C@@H]1[C@@H](O)[C@@H](Cc2cn(CCC(c3ccccc3)c3ccccc3)nn2)NC[C@H]1O` ; inhibition observed: < 50%
